Can you tell me change in melting temperature (ΔTm) for the items I'm about to list?
Experiment: Stabilization of d[G3(T2AG3)3] sequence of F21T telomeric G-quadruplex DNA assessed as change in melting temperature at 1 uM by FRET assay
Response body: numeric value in °C, unit text excluded.

Problem: Value lookup for change in melting temperature (ΔTm); key = `O=C(CCCN1CCCC1)Nc1cccc(NC(=O)c2ccc(NC(=O)Nc3ccc(C(=O)Nc4cccc(NC(=O)CCCN5CCCC5)c4)cc3)cc2)c1`
Solution: 3.3

Problem: Value lookup for change in melting temperature (ΔTm); key = `O=C(CN1CCCC1)Nc1cccc(NC(=O)c2cccc(NC(=O)Nc3cccc(C(=O)Nc4cccc(NC(=O)CN5CCCC5)c4)c3)c2)c1`
Solution: 6.8

Problem: Value lookup for change in melting temperature (ΔTm); key = `O=C(CCN1CCCC1)Nc1cccc(NC(=O)c2cccc(NC(=O)Nc3cccc(C(=O)Nc4cccc(NC(=O)CCN5CCCC5)c4)c3)c2)c1`
Solution: 14.1

The origin of these recorded values is ChEMBL document CHEMBL1151765.
